subject of test: GSK3B (Homo sapiens, UniProt P49841)
Sequence (P49841 whole entry, species assumed): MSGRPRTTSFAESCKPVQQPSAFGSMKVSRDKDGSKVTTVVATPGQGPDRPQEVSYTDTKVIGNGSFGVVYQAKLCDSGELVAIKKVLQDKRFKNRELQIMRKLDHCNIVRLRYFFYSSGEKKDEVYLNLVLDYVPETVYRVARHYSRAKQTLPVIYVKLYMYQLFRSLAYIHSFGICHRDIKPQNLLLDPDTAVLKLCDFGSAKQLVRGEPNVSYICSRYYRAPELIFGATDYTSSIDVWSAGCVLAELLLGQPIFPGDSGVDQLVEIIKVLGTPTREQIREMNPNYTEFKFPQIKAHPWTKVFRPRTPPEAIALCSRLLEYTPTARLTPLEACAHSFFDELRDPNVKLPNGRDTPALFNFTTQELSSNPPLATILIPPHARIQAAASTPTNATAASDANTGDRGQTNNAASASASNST
Collected IC50 values appear next to each entry.

Examples with their reported IC50 follow.
> print(dat)
                                   compound                       subject.of.test  quantity.name  test.value
1  CN1CCN(c2ccc(Nc3ncc4c(n3)n3c(cc5ccccc53)c(=O)n4C)cc2C(F)(F)F)CC1  GSK3B (Homo sapiens, UniProt P49841)           IC50   ≥ 5000 nM
2  COc1cc(C2CCN(C)CC2)ccc1Nc1ncc2c(n1)n1c(cc3ccccc31)c(=O)n2C  GSK3B (Homo sapiens, UniProt P49841)           IC50   ≥ 5000 nM

Field: next compound
Query block: Tell me IC50 of CN1CCN(c2ccc(Nc3ncc4c(n3)N3c5ccccc5CC3C(=O)N4C)cc2)CC1 (stereo not drawn) when tested on GSK3B (Homo sapiens, UniProt P49841).
Result block: 250 to 1000 nM

---

subject of test: CLK
experiment notes: kinase inhibition, CLK
pIC50: −log10 of the molar value.
Listed here: items and their measured pIC50.

Query block: Tell me measured pIC50 for Cn1c(=O)c2cc3ccccc3n2c2nc(Nc3ccc(N4CCOCC4)nc3)ncc21 please.
Result block: 6.00 to 6.60

Query block: Please give measured pIC50 of the following entry: CCN1CCN(c2ccc(Nc3ncc4c(n3)n3c(cc5ccccc53)c(=O)n4C)c(OC)c2)CC1
Result block: 6.00 to 6.60

Query block: Read off the recorded pIC50 for Cn1c(=O)c2cc3ccccc3n2c2nc(Nc3cc(N4CCOCC4)cc(N4CCOCC4)c3)ncc21
Result block: 6.00 to 6.60

Query block: Could you please provide reported pIC50 for COc1cc(N2CCN(C)CC2)ccc1Nc1ncc2c(n1)n1c(cc3ccccc31)c(=O)n2C ? Thanks!
Result block: 5.30 to 6.00

---

pIC50: −log10 of the molar value.
// pIC50 collected for NEK2 (Homo sapiens, UniProt P51955)

Consider the reported pIC50 for these molecules:
> print(dat)
                                   molecule    test.value
1  COc1cc(N2CCC(C(N)=O)CC2)ccc1Nc1ncc2c(n1)n1c(cc3ccccc31)c(=O)n2C  6.60 to 7.30
2  CCOc1cc(N2CCC(O)CC2)ccc1Nc1ncc2c(n1)n1c(cc3ccccc31)c(=O)n2C  6.60 to 7.30
3  CN1CCN(c2ccc(Nc3ncc4c(n3)N3c5ccccc5CC3C(=O)N4C)cc2)CC1 (stereo not shown)  6.60 to 7.30
4  CN1C(=O)C2Cc3ccccc3N2c2nc(Nc3ccc(N4CCC(N5CCOCC5)CC4)cc3)ncc21 (stereo not shown)        ≥ 7.30
5  CCn1c(=O)c2cc3ccccc3n2c2nc(Nc3ccc(N4CCN(C)CC4)c(C(F)(F)F)c3)ncc21  6.00 to 6.60

Query block: Give the value of pIC50 reported for the following: COc1cc(N2CCC(O)CC2)ccc1Nc1ncc2c(n1)n1c(cc3ccccc31)c(=O)n2C
Result block: 6.60 to 7.30

Query block: Please supply the value of reported pIC50 for the item CCN1CCN(c2ccc(Nc3ncc4c(n3)n3c(cc5ccccc53)c(=O)n4C)cc2C(F)(F)F)CC1
Result block: ≥ 7.30

---

Listing of recorded pIC50 by entry.
subject of test: NEK7 (Homo sapiens, UniProt Q8TDX7)
Sequence (Q8TDX7 whole entry, species assumed): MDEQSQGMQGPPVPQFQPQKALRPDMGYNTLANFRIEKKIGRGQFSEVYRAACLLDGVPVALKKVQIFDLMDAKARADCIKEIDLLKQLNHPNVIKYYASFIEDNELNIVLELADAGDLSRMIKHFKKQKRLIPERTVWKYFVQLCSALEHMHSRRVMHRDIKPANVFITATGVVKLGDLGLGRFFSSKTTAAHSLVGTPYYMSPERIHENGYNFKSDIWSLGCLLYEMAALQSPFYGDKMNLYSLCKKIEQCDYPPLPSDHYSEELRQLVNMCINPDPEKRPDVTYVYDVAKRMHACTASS
experiment notes: kinase inhibition, NEK7
Assay type: biochemical
pIC50: −log10 of the molar value.

> print(dat)
                                   compound    test.value
1  CN1CCN(c2ccc(Nc3ncc4c(n3)n3c(cc5ccccc53)c(=O)n4C)c(C(F)(F)F)c2)CC1 [Compound I-13]  6.00 to 6.60
2  COc1cc(C(=O)N2CCN(C)CC2)ccc1Nc1ncc2c(n1)n1c(cc3ccccc31)c(=O)n2C [Compound I-12]  5.30 to 6.00
3  CC(C)Oc1cc(N2CCC(O)CC2)ccc1Nc1ncc2c(n1)n1c(cc3ccccc31)c(=O)n2C [Compound I-19]  6.00 to 6.60

Query block: Please report pIC50 for the following compound: COc1cc(N2CCC(N3CCN(C)CC3)CC2)ccc1Nc1ncc2c(n1)n1c(cc3ccccc31)c(=O)n2C [Compound I-9]
Result block: 6.00 to 6.60

Query block: Provide pIC50 value for the following compound: Cn1c(=O)c2cc3ccccc3n2c2nc(Nc3cc(N4CCOCC4)cc(N4CCOCC4)c3)ncc21 [Compound I-21]
Result block: 6.00 to 6.60

Query block: Given the compound CN1CCN(c2ccc(Nc3ncc4c(n3)n3c(cc5ccccc53)c(=O)n4C)cc2)CC1 [Compound I-1] , write its reported pIC50.
Result block: 6.00 to 6.60

Query block: Identify measured pIC50 associated with COc1cc(C(=O)N2CCOCC2)ccc1Nc1ncc2c(n1)n1c(cc3ccccc31)c(=O)n2C [Compound I-14]
Result block: 6.60 to 7.30

Query block: Please report pIC50 for the following compound: Cn1c(=O)c2cc3ccccc3n2c2nc(Nc3ccc(N4CCOCC4)nc3)ncc21 [Compound I-22]
Result block: 6.00 to 6.60

---

subject of test: NEK2 (Homo sapiens, UniProt P51955)
Sequence (P51955 whole entry, species assumed): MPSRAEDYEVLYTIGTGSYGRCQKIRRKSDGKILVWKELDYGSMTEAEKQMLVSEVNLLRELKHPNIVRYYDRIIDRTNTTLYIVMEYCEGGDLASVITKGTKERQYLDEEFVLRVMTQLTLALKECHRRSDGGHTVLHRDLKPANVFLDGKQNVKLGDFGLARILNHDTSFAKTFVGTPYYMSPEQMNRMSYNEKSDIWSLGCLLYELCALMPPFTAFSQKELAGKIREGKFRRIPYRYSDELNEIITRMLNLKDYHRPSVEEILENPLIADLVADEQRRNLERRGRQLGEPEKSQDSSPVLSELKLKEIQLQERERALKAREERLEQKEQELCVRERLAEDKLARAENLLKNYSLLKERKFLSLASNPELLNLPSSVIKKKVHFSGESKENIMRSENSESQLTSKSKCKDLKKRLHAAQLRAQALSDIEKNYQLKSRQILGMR
Quick list: IC50 per entry.

> print(dat)
                                   molecule                      subject.of.test       test.value
1  CC(C)Oc1cc(N2CCC(O)CC2)ccc1Nc1ncc2c(n1)n1c(cc3ccccc31)c(=O)n2C [Compound I-19]  NEK2 (Homo sapiens, UniProt P51955)           ≥ 5 µM
2  COc1cc(C(=O)N2CCOCC2)ccc1Nc1ncc2c(n1)n1c(cc3ccccc31)c(=O)n2C [Compound I-14]  NEK2 (Homo sapiens, UniProt P51955)  0.05 to 0.25 µM
3  CCN1CCN(c2ccc(Nc3ncc4c(n3)n3c(cc5ccccc53)c(=O)n4C)c(OC)c2)CC1 [Compound I-15]  NEK2 (Homo sapiens, UniProt P51955)        ≤ 0.05 µM

Query block: State IC50 (NEK2 (Homo sapiens, UniProt P51955)) of Cn1c(=O)c2cc3ccccc3n2c2nc(Nc3cnn(CC(F)F)c3)ncc21 [Compound I-11] .
Result block: 0.25 to 1 µM

Query block: Report IC50 on NEK2 (Homo sapiens, UniProt P51955) for this entry: CN1C(=O)C2Cc3ccccc3N2c2nc(Nc3ccc(N4CCOCC4)cc3)ncc21 (centres unmarked) [Compound I-32]
Result block: 0.05 to 0.25 µM

---

subject of test: CLK
experiment notes: kinase inhibition, CLK
pIC50: −log10 of the molar value.
// reported pIC50 for each item listed

Worked examples follow.
> print(dat)
                                   compound  quantity.name    test.value
1  COc1cc(N2CCC(C(N)=O)CC2)ccc1Nc1ncc2c(n1)n1c(cc3ccccc31)c(=O)n2C          pIC50  5.30 to 6.00
2  CCOc1cc(N2CCC(O)CC2)ccc1Nc1ncc2c(n1)n1c(cc3ccccc31)c(=O)n2C          pIC50        ≤ 5.30
3  COc1cc(C(=O)N2CCOCC2)ccc1Nc1ncc2c(n1)n1c(cc3ccccc31)c(=O)n2C          pIC50        ≤ 5.30
4  CCN1CCN(c2ccc(Nc3ncc4c(n3)n3c(cc5ccccc53)c(=O)n4C)cc2)CC1          pIC50  6.60 to 7.30
5  CN1CCN(c2ccc(Nc3ncc4c(n3)n3c(cc5ccccc53)c(=O)n4C)cc2C(F)(F)F)CC1          pIC50  5.30 to 6.00

Query block: Specify measured pIC50 for CC(C)Oc1cc(N2CCC(O)CC2)ccc1Nc1ncc2c(n1)n1c(cc3ccccc31)c(=O)n2C .
Result block: ≤ 5.30

Query block: Quick one: give measured pIC50 for Cn1c(=O)c2cc3ccccc3n2c2nc(Nc3cnn(CC(F)F)c3)ncc21
Result block: ≤ 5.30

Query block: Return pIC50 (reported value) for this compound: CN1CCN(c2ccc(Nc3ncc4c(n3)N3c5ccccc5CC3C(=O)N4C)cc2)CC1 (centres unmarked)
Result block: 6.60 to 7.30

---

subject of test: NEK6 (Homo sapiens)
Sequence (Q9HC98 whole entry, species assumed): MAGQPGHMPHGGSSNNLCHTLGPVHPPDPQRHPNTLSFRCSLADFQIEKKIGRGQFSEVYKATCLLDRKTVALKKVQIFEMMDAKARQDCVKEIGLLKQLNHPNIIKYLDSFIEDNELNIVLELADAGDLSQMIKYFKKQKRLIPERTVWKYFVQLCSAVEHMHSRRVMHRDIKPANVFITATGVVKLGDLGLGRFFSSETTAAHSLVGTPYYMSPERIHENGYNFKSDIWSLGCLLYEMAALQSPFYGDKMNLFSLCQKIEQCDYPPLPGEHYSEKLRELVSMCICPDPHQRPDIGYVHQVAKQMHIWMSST
experiment notes: kinase inhibition, NEK6
Format: biochemical
pIC50: −log10 of the molar value.
Entries and their pIC50

> print(dat)
                                   molecule  quantity.name    test.value
1  CCN1CCN(c2ccc(Nc3ncc4c(n3)n3c(cc5ccccc53)c(=O)n4C)cc2)CC1          pIC50  6.00 to 6.60
2  Cn1c(=O)c2cc3ccccc3n2c2nc(Nc3ccc(N4CCC(N5CCOCC5)CC4)cc3)ncc21          pIC50  6.00 to 6.60
3  CC(C)Oc1cc(N2CCC(O)CC2)ccc1Nc1ncc2c(n1)n1c(cc3ccccc31)c(=O)n2C          pIC50  5.30 to 6.00
4  CN1CCN(c2ccc(Nc3ncc4c(n3)n3c(cc5ccccc53)c(=O)n4C)cc2)CC1          pIC50  6.60 to 7.30
5  Cn1c(=O)c2cc3ccccc3n2c2nc(Nc3ccc(N4CCOCC4)nc3)ncc21          pIC50  5.30 to 6.00
6  COc1cc(N2CCN(C)CC2)ccc1Nc1ncc2c(n1)n1c(cc3ccccc31)c(=O)n2C          pIC50  6.60 to 7.30
7  CN1CCN(c2ccc(Nc3ncc4c(n3)n3c(cc5ccccc53)c(=O)n4C)cc2C(F)(F)F)CC1          pIC50        ≤ 5.30

Now look at this entry.
Query block: Give the measured pIC50 for CN1CCN(c2ccc(Nc3ncc4c(n3)N3c5ccccc5CC3C(=O)N4C)cc2)CC1 (centres unmarked)
Result block: 5.30 to 6.00
